Target: ROS-GC1 (Bos taurus, UniProt P55203, F570S)
Sequence (P55203 57-1110 F570S): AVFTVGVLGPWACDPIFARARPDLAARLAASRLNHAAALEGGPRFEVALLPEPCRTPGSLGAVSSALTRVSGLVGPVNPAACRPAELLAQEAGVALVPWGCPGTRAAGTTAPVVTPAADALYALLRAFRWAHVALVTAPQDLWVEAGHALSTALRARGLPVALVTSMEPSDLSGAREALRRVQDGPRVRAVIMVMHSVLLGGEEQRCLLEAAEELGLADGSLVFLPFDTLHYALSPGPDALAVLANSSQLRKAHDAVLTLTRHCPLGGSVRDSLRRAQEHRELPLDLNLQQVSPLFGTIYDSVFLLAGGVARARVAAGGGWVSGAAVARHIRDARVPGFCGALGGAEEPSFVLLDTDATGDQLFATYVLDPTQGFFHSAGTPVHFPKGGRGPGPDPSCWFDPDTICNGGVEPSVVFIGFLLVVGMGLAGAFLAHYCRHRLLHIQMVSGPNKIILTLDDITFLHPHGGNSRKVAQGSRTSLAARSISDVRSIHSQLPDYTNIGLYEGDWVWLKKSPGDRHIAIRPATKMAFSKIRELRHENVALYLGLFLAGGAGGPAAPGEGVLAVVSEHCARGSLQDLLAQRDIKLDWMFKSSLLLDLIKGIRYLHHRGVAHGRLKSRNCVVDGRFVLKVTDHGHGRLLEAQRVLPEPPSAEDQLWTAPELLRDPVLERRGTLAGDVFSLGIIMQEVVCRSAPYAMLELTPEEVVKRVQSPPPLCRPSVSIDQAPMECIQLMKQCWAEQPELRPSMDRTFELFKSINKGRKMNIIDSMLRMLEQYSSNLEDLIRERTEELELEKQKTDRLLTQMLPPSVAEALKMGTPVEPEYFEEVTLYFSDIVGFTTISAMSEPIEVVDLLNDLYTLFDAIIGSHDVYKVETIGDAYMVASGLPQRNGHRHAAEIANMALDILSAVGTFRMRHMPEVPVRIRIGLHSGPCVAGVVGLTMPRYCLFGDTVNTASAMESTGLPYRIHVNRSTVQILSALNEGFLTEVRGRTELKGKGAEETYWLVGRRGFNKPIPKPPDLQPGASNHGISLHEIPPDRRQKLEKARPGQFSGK
Assay: biochemical
parameter: EC50 (mM)
# number only, unit mM dropped from output

Task: Write EC50 of O=C(O)O [bicarbonate] ; system used: ROS-GC1 (Bos taurus, UniProt P55203, F570S)
Result: 25

This collection of values is drawn from paper PMC4729890.
